Tested on: OVCAR-8
TEST_DESCRIPTION: NCI tumour cell line growth inhibition, 48 h
Calls of active or inactive are those of the source. Rule as the data show it: active = GI50 up to about 1.1 µM and inactive = higher. Positions of bridges follow the written chain, without caps; N, C: chain ends. Non-standard residues stand in square brackets, D forms with d. Residues, ends and D or L forms follow the SMILES beside them. Aib = CC(C)(N)C(=O)O; βAla = NCCC(=O)O
Please reply with one of these outcomes: active, inactive

Query :: Could you kindly confirm the outcome this assay logged for COc1ccc(C(C)NNC(=O)c2cc[n+]([BH2-]C#N)cc2)cc1F (stereo unspecified) ?
Result :: inactive

Query :: Could you kindly confirm the outcome this assay logged for O=[N+]([O-])c1nccn1CC(O)CN1CC1 (stereo unspecified) ?
Result :: inactive

Query :: Could you kindly confirm the outcome this assay logged for COc1ccc(OC)c(/C=C(/C#N)c2ccccc2)c1 ?
Result :: inactive

Query :: Could you kindly confirm the outcome this assay logged for C1CCC2C(C1)CCCC2NC1=NCCO1 (stereo unspecified) ?
Result :: inactive

Query :: Could you kindly confirm the outcome this assay logged for CCC/C=C/C=C/C(=O)OC1C(C)C2(O)C3C=C(C)C(=O)C3CC(COC(C)=O)=CC2C2C(C)(C)C12OC(=O)C(C)C (stereo unspecified) ?
Result :: inactive

Query :: Could you kindly confirm the outcome this assay logged for COC(=O)C(=O)CC(=O)c1cccc(OC)c1 ?
Result :: inactive

Query :: Could you kindly confirm the outcome this assay logged for CC1(C)NC(=O)C(NC(=O)C(N)CC(=O)O)CCCCNC(=O)CCNC1=O (stereo unspecified) (H-DK[Aib][βAla]; lactam 2-C; configuration not given here) ?
Result :: inactive

Query :: Could you kindly confirm the outcome this assay logged for COc1cc(C2c3cc4c(cc3[C@@H](Nc3ccc5c(c3)OCCO5)C3COC(=O)[C@H]23)OCO4)cc(OC)c1O (stereo partly specified) ?
Result :: active

Query :: Could you kindly confirm the outcome this assay logged for Cn1c(=O)c2[nH]c(N=O)nc2n(C)c1=O ?
Result :: inactive

Query :: Could you kindly confirm the outcome this assay logged for C#CC[C@]12CC(=O)CC[C@H]1CC1(C2)OCCO1 ?
Result :: inactive

Query :: Could you kindly confirm the outcome this assay logged for COc1ccc2c3c1O[C@H]1C(=O)C=CC4(n5[nH]c(=O)n(-c6ccccc6)c5=O)C(C2)N(C)CCC314 (stereo partly specified) ?
Result :: inactive
